Where do the numbers come from? From ChEMBL document CHEMBL4680302.

molecular target: Tumor necrosis factor (Homo sapiens, UniProt P01375); assay: Inhibition of exogenous human TNFalpha in HEK-Blue-CD40L cells assessed as reduction in TNF-alpha-induced NFkappaB activation incubated for 18 hrs by quanti-blue based SEAP assay; type: cell-based
Sequence (P01375 whole entry): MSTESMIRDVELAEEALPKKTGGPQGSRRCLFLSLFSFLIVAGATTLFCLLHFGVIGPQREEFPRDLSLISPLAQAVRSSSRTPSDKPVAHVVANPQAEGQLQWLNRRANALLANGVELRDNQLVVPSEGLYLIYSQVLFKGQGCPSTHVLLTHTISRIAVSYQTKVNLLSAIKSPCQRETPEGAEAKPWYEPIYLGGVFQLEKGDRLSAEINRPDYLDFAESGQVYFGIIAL
Please provide measured log10(IC50) for the entries that follow.
A value of 2 here means IC50 of 100 in µM, since values are log10.

Briefly, log10(IC50) measured for CC(Nc1c(Cl)cnc2ccc(-c3cnc(C(C)(C)O)nc3)cc12)c1cccc(F)c1 (racemic) : 0.02

Briefly, log10(IC50) measured for Cc1nc2cc(F)c(-c3cnc(C(C)(C)O)nc3)nc2c(N[C@H](C)c2cc(C#N)ccc2F)c1Cl : -1.57

Briefly, log10(IC50) measured for CCOc1ncc(-c2ccc3ncc(Cl)c(N[C@H](C)c4ccccc4F)c3c2)cn1 : -0.23

Briefly, log10(IC50) measured for C[C@@H](Nc1c(Cl)cnc2ccc(-c3ccc(S(C)(=O)=O)nc3)cc12)c1ccccc1F : -0.04

Briefly, log10(IC50) measured for CC(Nc1c(Cl)cnc2ccc(-c3cnc(C(C)(C)O)nc3)nc12)c1ccccc1F (single isomer, unassigned; enantiomer 1) : -0.12

* * *

test: Metabolic stability in mouse liver microsomes assessed as half-life; format: ADME, Microsome
readout_label: half-life (h)
Write it as a number; the unit h goes unstated.

Briefly, half-life measured for Cc1nc2cc(F)c(-c3cnc(C(C)(C)O)nc3)nc2c(N[C@H](C)c2cc(C#N)ccc2F)c1Cl : 1.3

* * *

target: Cytochrome P450 2C8 (Homo sapiens); experiment: Inhibition of recombinant CYP2C8 (unknown origin)
Sequence (P10632 whole entry): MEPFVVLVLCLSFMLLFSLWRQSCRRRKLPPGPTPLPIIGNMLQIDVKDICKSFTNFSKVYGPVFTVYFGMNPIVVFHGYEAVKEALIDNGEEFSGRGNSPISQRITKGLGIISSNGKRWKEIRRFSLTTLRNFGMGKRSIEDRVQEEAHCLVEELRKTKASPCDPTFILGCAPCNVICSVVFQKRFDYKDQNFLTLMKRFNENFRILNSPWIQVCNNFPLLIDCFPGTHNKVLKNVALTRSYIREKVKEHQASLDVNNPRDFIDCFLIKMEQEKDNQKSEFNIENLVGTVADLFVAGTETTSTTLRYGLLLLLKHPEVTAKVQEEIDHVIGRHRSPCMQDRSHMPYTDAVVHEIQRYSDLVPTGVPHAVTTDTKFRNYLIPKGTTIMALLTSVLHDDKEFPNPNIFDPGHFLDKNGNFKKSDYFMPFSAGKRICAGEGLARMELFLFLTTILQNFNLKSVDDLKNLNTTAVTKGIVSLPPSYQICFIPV
pIC50: −log10 of the molar value.
readout_label: pIC50

Briefly, pIC50 measured for Cc1nc2cc(F)c(-c3cnc(C(C)(C)O)nc3)nc2c(N[C@H](C)c2cc(C#N)ccc2F)c1Cl : < 5.17

* * *

experiment: Cmax in mouse at 2 mg/kg, po; assay type: ADME, organism-based; set-up: route oral, dose 2 mg/kg; conditions: in vivo
readout_label: Cmax
Express your answer as a number followed by its unit.

Briefly, Cmax measured for Cc1nc2cc(F)c(-c3cnc(C(C)(C)O)nc3)nc2c(N[C@H](C)c2cc(C#N)ccc2F)c1Cl : 470 nM

* * *

test: Metabolic stability in mouse liver microsomes assessed as parent compound remaining after 10 mins; format: ADME, Microsome; conditions: read-out: Stabilty
# met = remaining at 10 min below 50% (exclusive); not met = remaining at 10 min at/above 50%

Challenge: Report whether reported remaining at 10 min is lower than 50% (strictly) for CC(Nc1c(Cl)cnc2c(Cl)cc(-c3cnc(C(C)(C)O)nc3)cc12)c1ccccc1F (racemic)
Response given: met

Challenge: Report whether reported remaining at 10 min is lower than 50% (strictly) for CC(Nc1c(Cl)cnc2ccc(-c3cnc(C(C)(C)O)nc3)nc12)c1ccccc1F (single isomer, unassigned; enantiomer 2)
Response given: met

Challenge: Report whether reported remaining at 10 min is lower than 50% (strictly) for Cc1ccc(C)c(Nc2c(Cl)cnc3ccc(-c4cnc(C(C)(C)O)nc4)cc23)c1
Response given: met

Challenge: Report whether reported remaining at 10 min is lower than 50% (strictly) for CC(C)(O)c1ncc(-c2ccc3ncc(Cl)c(NC(C)(C)c4ccccc4)c3c2)cn1
Response given: met

Challenge: Report whether reported remaining at 10 min is lower than 50% (strictly) for C[C@@H](Nc1c(Cl)cnc2ccc(-c3cnc(C(C)(C)O)nc3)cc12)c1ccccc1F
Response given: not met

Challenge: Report whether reported remaining at 10 min is lower than 50% (strictly) for CC(Nc1c(Cl)cnc2ccc(-c3cnc(C(C)(C)O)nc3)cc12)c1cccc(F)c1 (racemic)
Response given: met

Challenge: Report whether reported remaining at 10 min is lower than 50% (strictly) for C[C@@H](Nc1c(Cl)cnc2ccc(-c3ccc(S(C)(=O)=O)nc3)cc12)c1ccccc1F
Response given: met

Challenge: Report whether reported remaining at 10 min is lower than 50% (strictly) for CC(Nc1c(Cl)cnc2ccc(-c3cnc(C(C)(C)O)nc3)cc12)c1ccc(F)cc1 (racemic)
Response given: met

Challenge: Report whether reported remaining at 10 min is lower than 50% (strictly) for CC(C)(O)c1ncc(-c2ccc3ncc(Cl)c(NCc4ccccc4)c3c2)cn1
Response given: not met

Challenge: Report whether reported remaining at 10 min is lower than 50% (strictly) for C[C@@H](Nc1c(Cl)cnc2ccc(-c3cnc(N4CCN(CC(=O)O)CC4)nc3)cc12)c1ccccc1F
Response given: not met
